Taken from patent US12685735B2.

Molecular target: BRM (Homo sapiens)
Test: ATPase catalytic activity assay of BRM (ADP-Glo)
Assay type: biochemical
Conditions: read-out: BRM IC50 (μM)*
attribute-measured: IC50

Recorded results for 2 compounds are shown here.
compound	reading
COc1cccc(-c2csc(NC(=O)CNC(=O)c3ccc4c(c3)[C@](C)(C#N)COC4)n2)n1	< 0.1 µM
Cn1ccc2ccc(-c3csc(NC(=O)CNC(=O)c4ccc5c(c4)[C@](C)(CO)CC5)n3)cc2c1=O	< 0.1 µM

In: Quickly give me recorded IC50 for COC[C@H](NC(=O)c1cccc(C(C)(C)CN)c1)C(=O)Nc1nc(-c2cccc(-c3ccnc(C)c3)c2)cs1
Out: 0.1 to 1 µM

In: Identify the reported IC50 for the following entry. C[C@@H]1CN(c2cccc(-c3csc(NC(=O)CNC(=O)c4cccc([C@]5(C(F)F)CCCO5)c4)n3)c2)C[C@H](C)O1
Out: 0.1 to 1 µM

In: For the compound C[C@@H]1CN(c2cccc(-c3csc(NC(=O)CNC(=O)c4ccc5c(c4)C(F)(C(F)F)CCO5)n3)n2)C[C@H](C)O1 (stereo in doubt) [Compound 273] , give its reported IC50.
Out: < 0.1 µM

In: Given CC(C)S(=O)(=O)c1cc(CO)cc(C(=O)NCC(=O)Nc2nc(-c3cccc(-c4ccncc4)c3)cs2)c1 , respond with its IC50.
Out: 1 to 5 µM

In: Look up and report measured IC50 for this entry: CC(=O)NCc1cccc(-c2cccc(-c3csc(NC(=O)CNC(=O)c4cccc(S(=O)(=O)C(C)C)c4)n3)c2)c1
Out: 0.1 to 1 µM

In: Please give the documented IC50 of C[C@@H]1CN(c2cccc(-c3csc(NC(=O)CNC(=O)c4ccc(Cl)c(C(C)(C)CO)c4)n3)c2)C[C@H](C)O1
Out: < 0.1 µM

In: Tell me measured IC50 for Cc1cc(-c2cccc(-c3csc(NC(=O)CNC(=O)c4ccc5c(c4)[C@@](C)(CN)CCC5)n3)c2)cc(C)n1 please.
Out: 1 to 5 µM

---

Molecular target: BRM (Homo sapiens, UniProt P51531)
Sequence (P51531 whole entry): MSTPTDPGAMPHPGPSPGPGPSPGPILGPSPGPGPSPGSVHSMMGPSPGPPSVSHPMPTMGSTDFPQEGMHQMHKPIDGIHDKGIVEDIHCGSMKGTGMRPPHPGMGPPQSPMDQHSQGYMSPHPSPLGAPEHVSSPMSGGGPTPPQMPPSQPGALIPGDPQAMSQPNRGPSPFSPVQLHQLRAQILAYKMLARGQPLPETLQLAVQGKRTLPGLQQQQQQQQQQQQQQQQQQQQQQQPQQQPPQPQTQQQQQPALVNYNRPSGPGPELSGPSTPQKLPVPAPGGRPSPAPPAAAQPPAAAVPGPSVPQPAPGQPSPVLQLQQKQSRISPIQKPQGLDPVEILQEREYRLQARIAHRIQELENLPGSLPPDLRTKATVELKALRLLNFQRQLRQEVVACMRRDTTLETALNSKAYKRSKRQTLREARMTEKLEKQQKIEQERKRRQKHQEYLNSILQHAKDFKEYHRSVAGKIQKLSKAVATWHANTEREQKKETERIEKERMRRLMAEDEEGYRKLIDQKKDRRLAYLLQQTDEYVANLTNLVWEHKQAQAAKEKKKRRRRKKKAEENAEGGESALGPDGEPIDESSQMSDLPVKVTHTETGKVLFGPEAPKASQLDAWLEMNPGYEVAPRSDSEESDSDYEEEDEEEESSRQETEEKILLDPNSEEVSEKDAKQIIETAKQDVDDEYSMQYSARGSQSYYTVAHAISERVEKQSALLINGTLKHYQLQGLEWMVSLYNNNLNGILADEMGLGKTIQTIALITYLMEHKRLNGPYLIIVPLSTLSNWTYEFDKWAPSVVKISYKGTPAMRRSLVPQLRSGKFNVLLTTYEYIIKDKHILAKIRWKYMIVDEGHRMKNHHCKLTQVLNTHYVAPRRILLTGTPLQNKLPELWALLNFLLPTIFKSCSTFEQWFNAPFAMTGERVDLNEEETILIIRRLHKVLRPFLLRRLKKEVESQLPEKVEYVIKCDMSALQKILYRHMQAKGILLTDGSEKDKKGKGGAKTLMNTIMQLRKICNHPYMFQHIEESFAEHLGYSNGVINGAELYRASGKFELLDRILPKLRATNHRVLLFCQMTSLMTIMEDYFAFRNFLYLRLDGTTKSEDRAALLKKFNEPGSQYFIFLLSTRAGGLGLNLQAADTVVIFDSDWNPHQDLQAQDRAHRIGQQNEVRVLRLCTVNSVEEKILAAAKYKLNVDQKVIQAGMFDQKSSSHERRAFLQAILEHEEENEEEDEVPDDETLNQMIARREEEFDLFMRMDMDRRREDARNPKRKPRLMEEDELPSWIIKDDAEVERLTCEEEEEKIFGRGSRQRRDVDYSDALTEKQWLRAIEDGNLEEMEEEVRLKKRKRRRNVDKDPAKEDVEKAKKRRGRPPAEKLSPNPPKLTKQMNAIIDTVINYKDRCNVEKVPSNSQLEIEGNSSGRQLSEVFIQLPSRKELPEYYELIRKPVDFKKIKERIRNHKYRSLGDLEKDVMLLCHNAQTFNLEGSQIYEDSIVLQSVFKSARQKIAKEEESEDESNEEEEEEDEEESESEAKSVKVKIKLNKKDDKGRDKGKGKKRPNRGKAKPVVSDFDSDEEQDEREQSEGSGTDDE
Experiment: ATPase catalytic activity assay of BRM (ADP-Glo)
Assay type: biochemical
Conditions: 30 nM BRM, 400 μM ATP
Measured BRM Max % Inhibition by item

Take a look at these entries with their results.
molecule	BRM Max % Inhibition
C[C@@H]1CN(c2cccc(-c3csc(NC(=O)[C@H](CO)NC(=O)c4ccnc(C(C)(C)C)c4)n3)c2)C[C@H](C)O1	>90%
C[C@@H]1CN(c2cccc(-c3csc(NC(=O)CNC(=O)c4cccc([C@@]5(C)COC[C@@H]5O)c4)n3)n2)C[C@H](C)O1 (stereo in doubt)	>95%
C[C@@H]1CN(c2cccc(-c3csc(NC(=O)CNC(=O)c4ccc5c(c4)C(C)(C#N)CO5)n3)c2)C[C@H](C)O1 (stereo in doubt)	>95%

In: Indicate its recorded BRM Max % Inhibition; the molecule in question is CC1(C#N)CCOc2ccc(C(=O)NCC(=O)Nc3nc(-c4cccc(N5CCC5)c4)cs3)cc21 (stereo in doubt)
Out: >95%

In: Quickly give me recorded BRM Max % Inhibition for C[C@@H]1CN(c2cccc(-c3csc(NC(=O)CNC(=O)c4ccnc(C(C)(C#N)CO)c4)n3)c2)C[C@H](C)O1 (stereo in doubt)
Out: >85%

In: Report BRM Max % Inhibition for C[C@@H]1CN(c2cccc(-c3csc(NC(=O)CNC(=O)c4ccc5c(c4)C(C#N)(CO)CCO5)n3)c2)C[C@H](C)O1 (stereo partly drawn)
Out: >95%

In: For the molecule COc1cccc(-c2csc(NC(=O)CNC(=O)c3ccc4c(c3)C(C)(C#N)CCO4)n2)c1 (stereo in doubt) , give its reported BRM Max % Inhibition.
Out: >95%

In: Please supply the value of reported BRM Max % Inhibition for the item C[C@@H]1CN(c2cccc(-c3csc(NC(=O)CNC(=O)c4cccc(C5(C#N)COC5)c4)n3)c2)C[C@H](C)O1
Out: >95%

In: Answer with the recorded BRM Max % Inhibition of CC1(C#N)CCOc2ccc(C(=O)NCC(=O)Nc3nc(-c4cccc([C@@H]5CC5(F)F)c4)cs3)cc21 (stereo in doubt) only.
Out: >95%
